Study target: UniProtKB P03372
Sequence (P03372 whole entry): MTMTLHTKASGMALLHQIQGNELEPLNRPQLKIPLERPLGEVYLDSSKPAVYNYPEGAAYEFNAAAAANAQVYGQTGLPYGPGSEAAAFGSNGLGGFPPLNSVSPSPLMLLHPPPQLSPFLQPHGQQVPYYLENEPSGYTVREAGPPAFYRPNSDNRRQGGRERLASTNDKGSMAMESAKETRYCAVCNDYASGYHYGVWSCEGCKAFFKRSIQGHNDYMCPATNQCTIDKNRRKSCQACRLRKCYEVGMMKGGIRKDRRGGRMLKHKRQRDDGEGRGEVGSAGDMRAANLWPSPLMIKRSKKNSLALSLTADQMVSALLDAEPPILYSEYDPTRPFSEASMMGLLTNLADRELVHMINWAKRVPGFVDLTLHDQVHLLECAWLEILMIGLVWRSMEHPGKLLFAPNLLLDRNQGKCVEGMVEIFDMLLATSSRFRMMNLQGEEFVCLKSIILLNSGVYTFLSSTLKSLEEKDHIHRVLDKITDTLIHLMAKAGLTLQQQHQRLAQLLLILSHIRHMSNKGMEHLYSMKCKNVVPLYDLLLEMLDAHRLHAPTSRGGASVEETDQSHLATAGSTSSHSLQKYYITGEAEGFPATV
Measured attribute: pIC50
Please treat pIC50 as minus the base-10 logarithm of the molar concentration.

These solved cases illustrate the format of a correct answer.
CCCCCCCCNCCOc1ccc(/C(=C(/CC)c2ccccc2)c2ccc(O)cc2)cc1: 7.28
CC/C(=C(\c1ccc(O)cc1)c1ccc(OCCNCCCCCCCCCCO)cc1)c1ccccc1: 6.68

Specify pIC50 for CC/C(=C(\c1ccc(O)cc1)c1ccc(OCCNCCCCCCCCCCF)cc1)c1ccccc1 and stop.
8.47

Specify pIC50 for CCCCCCCCCCCCCCCCNCCOc1ccc(/C(=C(/CC)c2ccccc2)c2ccc(O)cc2)cc1 and stop.
8.32
